test: Drug concentration at steady state in human at 400 to 800 mg, po QD after 24 hrs; assay type: ADME, organism-based; settings: in vivo, read-out: Css
outcome-measure: concentration at 24 h (nM)
State just the number; it will be interpreted in nM.

Qu. What does the data say about its concentration at 24 h? Entry: CC(=O)O[C@]1(C(C)=O)CC[C@H]2[C@@H]3C=C(C)C4=CC(=O)CC[C@]4(C)[C@H]3CC[C@@]21C [MEGESTROL ACETATE]
Ans. 1490

* * *

target: Bile salt export pump (Homo sapiens, UniProt O95342); assay: Inhibition of human BSEP overexpressed in Sf9 cell membrane vesicles assessed as uptake of [3H]-taurocholate in presence of ATP measured after 15 to 20 mins by membrane vesicle transport assay
Sequence (O95342 whole entry): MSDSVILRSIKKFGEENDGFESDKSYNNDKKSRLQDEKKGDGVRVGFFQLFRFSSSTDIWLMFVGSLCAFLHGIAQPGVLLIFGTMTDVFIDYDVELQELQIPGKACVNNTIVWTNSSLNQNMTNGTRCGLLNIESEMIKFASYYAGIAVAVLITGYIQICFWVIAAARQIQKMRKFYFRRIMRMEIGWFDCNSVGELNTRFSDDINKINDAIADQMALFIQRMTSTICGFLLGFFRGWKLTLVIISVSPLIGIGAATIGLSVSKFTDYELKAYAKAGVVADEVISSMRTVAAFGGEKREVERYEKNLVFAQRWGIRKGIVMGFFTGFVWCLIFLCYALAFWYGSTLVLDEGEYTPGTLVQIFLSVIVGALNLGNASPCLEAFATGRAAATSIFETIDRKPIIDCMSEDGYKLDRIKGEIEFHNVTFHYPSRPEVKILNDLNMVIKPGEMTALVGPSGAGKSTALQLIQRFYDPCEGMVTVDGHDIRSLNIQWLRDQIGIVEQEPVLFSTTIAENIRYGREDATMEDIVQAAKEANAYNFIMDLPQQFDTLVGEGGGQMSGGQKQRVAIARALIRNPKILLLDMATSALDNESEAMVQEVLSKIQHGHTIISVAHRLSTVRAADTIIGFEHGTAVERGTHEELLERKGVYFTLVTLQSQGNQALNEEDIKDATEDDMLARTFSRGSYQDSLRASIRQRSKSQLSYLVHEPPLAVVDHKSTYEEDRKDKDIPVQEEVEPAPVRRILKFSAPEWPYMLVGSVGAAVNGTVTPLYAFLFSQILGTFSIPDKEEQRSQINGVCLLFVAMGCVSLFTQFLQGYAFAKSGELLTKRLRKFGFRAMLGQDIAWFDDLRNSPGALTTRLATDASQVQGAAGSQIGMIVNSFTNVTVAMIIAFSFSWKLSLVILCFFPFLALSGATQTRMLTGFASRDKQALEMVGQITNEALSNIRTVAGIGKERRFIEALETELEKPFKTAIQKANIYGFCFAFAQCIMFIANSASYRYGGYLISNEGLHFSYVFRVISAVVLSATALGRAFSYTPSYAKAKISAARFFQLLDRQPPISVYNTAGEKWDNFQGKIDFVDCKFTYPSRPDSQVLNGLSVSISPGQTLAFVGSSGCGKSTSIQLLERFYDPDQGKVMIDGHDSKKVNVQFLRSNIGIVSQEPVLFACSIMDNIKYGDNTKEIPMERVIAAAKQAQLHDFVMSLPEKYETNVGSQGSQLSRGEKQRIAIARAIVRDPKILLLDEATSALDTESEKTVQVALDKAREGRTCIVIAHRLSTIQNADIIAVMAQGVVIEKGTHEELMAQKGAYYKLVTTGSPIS
Assign IC50 to each entry below.

Qu. What does the data say about its IC50? Entry: CC(C)C[C@H](CN)CC(=O)O
Ans. > 133 µM

Qu. What does the data say about its IC50? Entry: NC(=O)CC[C@@H]1NC(=O)[C@H](Cc2ccccc2)NC(=O)[C@H](Cc2ccc(O)cc2)NC(=O)[C@@H](N)CSSC[C@@H](C(=O)N2CCC[C@H]2C(=O)N[C@@H](CCCN=C(N)N)C(=O)NCC(N)=O)NC(=O)[C@H](CC(N)=O)NC1=O
Ans. > 133 µM

Qu. What does the data say about its IC50? Entry: COCC(=O)O[C@]1(CCN(C)CCCc2nc3ccccc3[nH]2)CCc2cc(F)ccc2[C@@H]1C(C)C.Cl
Ans. 43.8 µM

* * *

assay: AUC in human at 50 ug, sc BID/TID co-treated with 50 to 500 ug, sc TID of sandostatin LAR measured after 8 hrs; type: ADME, organism-based; parameters: dose 50 ug, time < 8 hr, route subcutaneous; settings: in vivo
outcome-measure: AUC at 8 h (µM·h)
State just the number; it will be interpreted in µM·h.

Qu. What does the data say about its AUC at 8 h? Entry: CC(=O)O.C[C@@H](O)[C@@H]1NC(=O)[C@H](CCCCN)NC(=O)[C@@H](Cc2c[nH]c3ccccc23)NC(=O)[C@H](Cc2ccccc2)NC(=O)[C@@H](NC(=O)[C@H](N)Cc2ccccc2)CSSC[C@@H](C(=O)N[C@H](CO)[C@@H](C)O)NC1=O [OCTREOTIDE ACETATE]
Ans. 42.2

* * *

assay: clinical; conditions: human, in vivo, po
outcome-measure: AUC at 24 h
Please report the result as a number followed by the unit.

Qu. What does the data say about its AUC at 24 h? Entry: CCCCc1oc2ccccc2c1C(=O)c1cc(I)c(OCCN(CC)CC)c(I)c1 [AMIODARONE]
Ans. 32.7 µM·h

* * *

assay: AUC in human at 20 to 25 mg/kg, po TID after 8 hrs; type: ADME, organism-based; conditions: in vivo
outcome-measure: AUC at 8 h (µM·h)
State just the number; it will be interpreted in µM·h.

Qu. What does the data say about its AUC at 8 h? Entry: O=C(C1CCCCC1)N1CC(=O)N2CCc3ccccc3C2C1 (stereo unspecified)
Ans. 50.4

* * *

test: AUC in human at 20 to 40 mg/kg, po QD after 24 hrs; assay type: ADME, organism-based; conditions: in vivo
outcome-measure: AUC at 24 h (µM·h)
State just the number; it will be interpreted in µM·h.

Qu. What does the data say about its AUC at 24 h? Entry: O=C(O)c1ccc(-n2nc(-c3ccccc3O)nc2-c2ccccc2O)cc1
Ans. 3310

* * *

assay: AUC in human at 5 to 20 mg, iv after 24 hrs; format: ADME, organism-based; settings: in vivo
outcome-measure: AUC at 24 h (µM·h)
State just the number; it will be interpreted in µM·h.

Qu. What does the data say about its AUC at 24 h? Entry: CO[C@H]1C[C@@H]2CC[C@@H](C)[C@@](O)(O2)C(=O)C(=O)N2CCCC[C@H]2C(=O)O[C@H]([C@H](C)C[C@@H]2CC[C@@H](OC(=O)C(C)(CO)CO)[C@H](OC)C2)CC(=O)[C@H](C)/C=C(\C)[C@@H](O)[C@@H](OC)C(=O)[C@H](C)C[C@H](C)/C=C/C=C/C=C/1C [TEMSIROLIMUS]
Ans. 1.91

* * *

test: AUC in human at 400 to 600 mg, po QD after 24 hrs; type: ADME, organism-based; settings: in vivo
outcome-measure: AUC at 24 h (µM·h)
State just the number; it will be interpreted in µM·h.

Qu. What does the data say about its AUC at 24 h? Entry: Cc1ccc(NC(=O)c2ccc(CN3CCN(C)CC3)cc2)cc1Nc1nccc(-c2cccnc2)n1
Ans. 106

* * *

assay: AUC in human at 9 mg, po QD after 24 hrs; format: ADME, organism-based; set-up: time < 24 hr, dose 9 mg, route oral; details: in vivo
outcome-measure: AUC at 24 h (µM·h)
State just the number; it will be interpreted in µM·h.

Qu. What does the data say about its AUC at 24 h? Entry: CCCC1O[C@@H]2C[C@H]3[C@@H]4CCC5=CC(=O)C=C[C@]5(C)[C@H]4[C@@H](O)C[C@]3(C)[C@]2(C(=O)CO)O1 (stereo partly specified) [BUDESONIDE]
Ans. 0.0151

* * *

assay: Drug concentration at steady state in human at 100 mg, po QD after 24 hrs; assay type: ADME, organism-based; conditions: in vivo, read-out: Css
outcome-measure: concentration at 24 h
Please report the result as a number followed by the unit.

Qu. What does the data say about its concentration at 24 h? Entry: COCC(=O)O[C@]1(CCN(C)CCCc2nc3ccccc3[nH]2)CCc2cc(F)ccc2[C@@H]1C(C)C.Cl
Ans. 735 nM

* * *

test: Drug concentration at steady state in human at 0.5 to 4 mg, po BID/TID/QID after 6 hrs; format: ADME, organism-based; conditions: in vivo, read-out: Css
outcome-measure: concentration at 6 h (nM)
State just the number; it will be interpreted in nM.

Qu. What does the data say about its concentration at 6 h? Entry: CCOc1cc(CC(=O)N[C@@H](CC(C)C)c2ccccc2N2CCCCC2)ccc1C(=O)O [REPAGLINIDE]
Ans. 16

* * *

assay: AUC in human at 400 to 800 mg, po QD used as formulation with ritonavir measured after 24 hrs; format: ADME, organism-based; settings: in vivo
outcome-measure: AUC at 24 h (µM·h)
State just the number; it will be interpreted in µM·h.

Qu. What does the data say about its AUC at 24 h? Entry: Cc1cccc(C)c1OCC(=O)N[C@@H](Cc1ccccc1)[C@@H](O)C[C@H](Cc1ccccc1)NC(=O)[C@H](C(C)C)N1CCCNC1=O
Ans. 158

* * *

assay: AUC in human at 200 mg, po QD after 24 hrs; assay type: ADME, organism-based; parameters: time < 24 hr, dose 200 mg, route oral; conditions: in vivo
outcome-measure: AUC at 24 h
Please report the result as a number followed by the unit.

Qu. What does the data say about its AUC at 24 h? Entry: CC(=O)N1CCN(c2ccc(OCC3COC(Cn4ccnc4)(c4ccc(Cl)cc4Cl)O3)cc2)CC1 (stereo unspecified)
Ans. 31.1 µM·h

* * *

assay: Drug concentration at steady state in human at 400 mg, po BID for 5 to 10 days after 12 hrs; assay type: ADME, organism-based; conditions: in vivo, read-out: Css
outcome-measure: concentration at 12 h (nM)
State just the number; it will be interpreted in nM.

Qu. What does the data say about its concentration at 12 h? Entry: CC[C@H]1OC(=O)[C@H](C)C(=O)[C@H](C)[C@@H](O[C@@H]2O[C@H](C)C[C@H](N(C)C)[C@H]2O)[C@](C)(OC)C[C@@H](C)C(=O)[C@H](C)[C@H]2N(CCCCn3cnc(-c4cccnc4)c3)C(=O)O[C@]12C
Ans. 964

* * *

experiment: AUC in human at 5 to 10 mg, po after 24 hrs; format: ADME, organism-based; conditions: in vivo
outcome-measure: AUC at 24 h (µM·h)
State just the number; it will be interpreted in µM·h.

Qu. What does the data say about its AUC at 24 h? Entry: COc1cc2c(cc1OC)C(=O)C(CC1CCN(Cc3ccccc3)CC1)C2 (stereo unspecified)
Ans. 9.76

* * *

assay: AUC in patient with chronic phase CML at 70 to 90 mg, po BID after 12 hrs; type: ADME, organism-based; settings: human, in vivo
outcome-measure: AUC at 12 h (µM·h)
State just the number; it will be interpreted in µM·h.

Qu. What does the data say about its AUC at 12 h? Entry: Cc1nc(Nc2ncc(C(=O)Nc3c(C)cccc3Cl)s2)cc(N2CCN(CCO)CC2)n1.O
Ans. 0.624

* * *

experiment: AUC in human at 100 mg, po QD after 24 hrs; format: ADME, organism-based; design: time < 24 hr, dose 100 mg, route oral; conditions: in vivo
outcome-measure: AUC at 24 h (µM·h)
State just the number; it will be interpreted in µM·h.

Qu. What does the data say about its AUC at 24 h? Entry: COCC(=O)O[C@]1(CCN(C)CCCc2nc3ccccc3[nH]2)CCc2cc(F)ccc2[C@@H]1C(C)C.Cl
Ans. 17.6
